Consider the following binders; for each one, report its IC50.
Molecular target: T1, Recombinant human CD40L (human, UniProt P29965 108-261, limits assumed)
T1 construct: also called CD40 ligand
T1 sequence (looked up): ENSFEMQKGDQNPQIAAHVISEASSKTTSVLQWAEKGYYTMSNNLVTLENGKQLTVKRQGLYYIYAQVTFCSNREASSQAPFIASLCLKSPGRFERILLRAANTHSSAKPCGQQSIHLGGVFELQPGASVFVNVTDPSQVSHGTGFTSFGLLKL
Test: CD40L receptor binding assay: dAb inhibits CD40L (3 ng/ml) binding to coated CD40/Fc
Give the value, in units of nM, as a plain number.

Specify reported IC50 for the binder shown: DOM-2 (other, VH dAb) VH: EVQLLESGGGLVQPGGSLRLSCAASGFTFSDYEMMWVRQAPGKGLEWVSTITSDGISTYYADSVKGRFTIFRDNSKNTLYLQMNSLRAEDTAVYYCAKSGRFFDYWGQGTLVTVSS
800

Specify reported IC50 for the binder shown: DOM-24 (other, VH dAb; also called DOM8-24; monomeric DOM-24) VH: EVQLLESGGGLVQPGGSLRLSCAASGFTFSNYQMAWVRQAPGKGLEWVSSITSEGGSTYYADSVKGRFTISRDNSKNTLYLQMNSLRAEDTAVYYCAKPGKNFDYWGQGTLVTVSS
0.417

Specify reported IC50 for the binder shown: DOM-77 (other, VH dAb) VH: EVQLLESGGGLVQPGGSLRLSCAASGFTFEEYGMAWVRQAPGKGLEWVSTISPLGISTYYADSVKGRFTISRDNSKNTLYLQMNSLRAEDTAVYYCAKHATSQESLRSFDYWGQGTLVTVSS
40

Specify reported IC50 for the binder shown: DOM-30 (other, VH dAb) VH: EVQLLESGGGLVQPGGSLRLSCAASGFTFARYQMAWVRQAPGKGLEWVSTISDDGDSTYYADSVKGRFTISRDNSKNTLYLQMNSLRAEDTAVYYCAKLDKLFDYWGQGTLVTVSS
8

Specify reported IC50 for the binder shown: DOM-10 (other, VH dAb) VH: EVQLLESGGGLVQPGGSLRLSCAASGFTFIAYDMSWVRQAPGKGLEWVSWIDEWGLQTYYADSVKGRFTISRDNSKNTLYLQMNSLRAEDTAVYYCAKKTPEEFDYWGQGTLVTVSS
50

Specify reported IC50 for the binder shown: DOM-20 (other, VH dAb) VH: EVQLLESGGGLVQPGGSLRLSCAASGFTFSGYQMAWVRQAPGKGLEWVSGISSEGLTTYYADSVKGRFTISRDNSKNTLYLQMNSLRAEDTAVYYCAKLGRRFDYWGQGTLVTVSS
8

Specify reported IC50 for the binder shown: DOM-5 (other, VH dAb) VH: EVQLLESGGGLVQPGGSLRLSCAASGFTFDGYEMAWVRQAPGKGLEWVSSITSDGTSTYYADSVKGRFTISRDNSKNTLYLQMNSLRAEDTAVYYCAKPGLRFDYWGQGTLVTVSS
3
